# targetOrTestSystem: LC8 (UniProt Q24117 1-89)
# Sequence (Q24117 whole entry): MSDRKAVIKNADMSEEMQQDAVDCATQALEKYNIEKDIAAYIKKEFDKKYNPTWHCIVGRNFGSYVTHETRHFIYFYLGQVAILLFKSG
# testDescription: ITC
Here the recorded Kd is given for each entry.
Put down the number, then write its unit next to it.

SYSVSEVGTQTSI [QT2p] | 6.3 µM

# evaluate next
Recorded Kd of SYWSRSTTTQTDM [QT4p] , please. 5.2 µM

Recorded values, source paper PMC6995037.
